Protocol Summary: protein stability index of a GFP-peptide fusion (GPS, HEK-293T) (PSI 1-6); higher = more stable;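 note: 24-mer peptide tiles fused after GFP, lentivirally expressed, FACS-sorted into six equal bins by GFP/DsRed ratio, decoded by Illumina sequencing, PSI is the read-weighted mean bin number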
Details: treatment: MLN4924 1 uM, 8 h; c terminus: a fixed tail appended
# binarize protein stability index: threshold 4 inclusive, high side true (1), low side false (0)

Answered cases to consult:
> print(dat)
                        query.sequence  assigned.category
 1   FMECLVDARMLDHLTKKDLRVHLK [PPFIA4]          false (0)
 2    TAAFTTAKAAALSTKTPAPCSEFM [SPAG8]          false (0)
 3     KDIDMFSMCEHHLVPFVGKVHIGY [GCH1]          false (0)
 4   ELDDTLKYSFLQFDPAPRRGEPHV [PPP2CA]          false (0)
 5     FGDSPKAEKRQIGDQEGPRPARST [FBF1]           true (1)
 6    DVLLLGNDYIVPRHCPELAEMSRV [HNF4A]          false (0)
 7  ERQEEQSAAIHISETLEQKPHFES [EPB41L3]           true (1)
 8   SSLTADLLSVDAFAAPSPATTASP [SNAP91]           true (1)
 9    VLALRNMKNLLFSEMWDIFLVRLL [MFSD9]          false (0)
10    LHEALQDYEAGQHMEDPRRAGKML [ESRRG]           true (1)

Exercise: Would you say RELAERGVRIVSRGRTQLFSLNPR [PCDHGA10] shows protein stability index at minimum 4?
Key: false (0)

Exercise: Would you say EAYLASLRADQEKERKKREERERK [FAF2] shows protein stability index at minimum 4?
Key: true (1)

Exercise: Would you say CPGLRLPGSLAGRRAGPAIWAQGW [AUH] shows protein stability index at minimum 4?
Key: false (0)

Exercise: Would you say VEEGNVQTLLPAACLLQLAEIQEA [KLHL20] shows protein stability index at minimum 4?
Key: false (0)

Exercise: Would you say PEEPAASTDPNIVRKKERGREEKC [TAF7L] shows protein stability index at minimum 4?
Key: true (1)

Exercise: Would you say EVEELDNWQPAVPLMHMLHLSGAL [SPATS1] shows protein stability index at minimum 4?
Key: false (0)

Exercise: Would you say PWDKNPEALAKWAEGRTGFPWIDA [CRY1] shows protein stability index at minimum 4?
Key: false (0)
